These entries and their values trace back to ChEMBL document CHEMBL2218924.

molecular target: Muscle, skeletal receptor tyrosine-protein kinase (Homo sapiens) (UniProt O15146); conditions: at 1 µM
Sequence (O15146 whole entry): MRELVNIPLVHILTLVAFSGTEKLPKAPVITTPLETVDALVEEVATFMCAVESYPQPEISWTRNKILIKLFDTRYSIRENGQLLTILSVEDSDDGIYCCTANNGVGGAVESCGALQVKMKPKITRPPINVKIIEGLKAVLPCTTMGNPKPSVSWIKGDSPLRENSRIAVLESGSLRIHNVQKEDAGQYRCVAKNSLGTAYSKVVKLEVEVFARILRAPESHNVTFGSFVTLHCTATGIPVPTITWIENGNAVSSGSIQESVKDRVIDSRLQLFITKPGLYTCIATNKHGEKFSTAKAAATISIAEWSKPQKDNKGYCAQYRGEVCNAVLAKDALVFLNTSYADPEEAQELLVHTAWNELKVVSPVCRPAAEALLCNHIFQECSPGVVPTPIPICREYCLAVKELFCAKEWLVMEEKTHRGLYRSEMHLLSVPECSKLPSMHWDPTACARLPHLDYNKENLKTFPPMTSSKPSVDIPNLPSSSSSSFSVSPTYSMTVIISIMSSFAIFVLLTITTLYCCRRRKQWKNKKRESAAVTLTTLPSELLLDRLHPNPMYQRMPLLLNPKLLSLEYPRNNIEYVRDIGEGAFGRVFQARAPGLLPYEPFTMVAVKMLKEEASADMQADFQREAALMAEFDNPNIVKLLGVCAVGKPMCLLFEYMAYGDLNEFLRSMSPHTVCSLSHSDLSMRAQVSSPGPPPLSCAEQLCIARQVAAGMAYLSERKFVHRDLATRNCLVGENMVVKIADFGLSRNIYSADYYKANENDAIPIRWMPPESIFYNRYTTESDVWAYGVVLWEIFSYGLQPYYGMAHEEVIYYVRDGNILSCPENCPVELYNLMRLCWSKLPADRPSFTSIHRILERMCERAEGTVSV
We begin with a simple list: items and their reported residual activity.

Completed entries (count: 5):
{"columns": ["Chemical Structure", "residual activity"],
 "data": [
  ["CC(C)c1nn(-c2c(Cl)cccc2Cl)c2nc(Cc3ccc(OCCO)cc3)[nH]c(=O)c12", "96%"],
  ["O=C1C(Cl)=C(N2C(=O)CCC2=O)C(=O)c2ccccc21", "76%"],
  ["c1ccc(-c2cnc(Nc3ccc(OCCN4CCCC4)cc3)s2)cc1", "4%"],
  ["NCCNc1ncc(C(N)=O)c(Nc2cccc(C(F)(F)F)c2)n1", "107%"],
  ["COc1ccc2c(c1)c(C1=C(c3c[nH]c4ccccc34)C(=O)NC1=O)cn2CCCN(C)C", "96%"]
]}

Input line: I would be grateful if you could share the reported residual activity for CC(C)N(CCC(=O)c1ccc2ccccc2c1)Cc1ccccc1 .
Output line: 87%
